assay_system: ParC^S87N N. gonorrhoeae topoisomerase IV (Neisseria gonorrhoeae, UniProt P48374, S87N)
method_notes: Topoisomerase IV-catalyzed DNA decatenation, ParC S87N
quantity_measured: IC50 (µM)
All answers are understood in µM, so give the number only.

Query block: Please look up its IC50: O=C(O)c1cn(C2CC2)c2cc(N3CCNCC3)c(F)cc2c1=O [Ciprofloxacin]
Result block: 16.4

###

assay_system: ParC^E91G N. gonorrhoeae topoisomerase IV (Neisseria gonorrhoeae, UniProt P48374, E91G)
Sequence (P48374 1-768 E91G): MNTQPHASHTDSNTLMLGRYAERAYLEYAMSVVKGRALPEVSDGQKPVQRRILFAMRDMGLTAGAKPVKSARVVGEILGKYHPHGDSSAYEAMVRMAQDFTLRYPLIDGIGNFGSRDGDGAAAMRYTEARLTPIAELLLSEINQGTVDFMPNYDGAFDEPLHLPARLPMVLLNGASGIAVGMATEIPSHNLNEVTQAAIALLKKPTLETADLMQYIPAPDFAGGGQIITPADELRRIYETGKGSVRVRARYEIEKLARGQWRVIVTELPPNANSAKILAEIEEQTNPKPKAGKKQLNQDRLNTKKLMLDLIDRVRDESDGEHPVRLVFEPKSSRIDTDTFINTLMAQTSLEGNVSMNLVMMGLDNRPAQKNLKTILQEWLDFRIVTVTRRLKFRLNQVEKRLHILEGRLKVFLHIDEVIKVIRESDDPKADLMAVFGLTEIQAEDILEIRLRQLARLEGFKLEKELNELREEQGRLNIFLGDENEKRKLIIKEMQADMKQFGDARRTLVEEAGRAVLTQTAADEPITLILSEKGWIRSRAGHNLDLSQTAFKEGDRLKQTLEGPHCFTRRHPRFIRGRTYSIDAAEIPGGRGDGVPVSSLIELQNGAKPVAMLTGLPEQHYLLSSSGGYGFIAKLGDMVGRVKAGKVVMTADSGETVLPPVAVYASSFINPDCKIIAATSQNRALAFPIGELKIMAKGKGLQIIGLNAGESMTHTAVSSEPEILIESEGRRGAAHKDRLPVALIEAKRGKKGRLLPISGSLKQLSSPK
method_notes: Topoisomerase IV-catalyzed DNA decatenation, ParC E91G
quantity_measured: pIC50
To interpret pIC50, take it as minus log10 of a concentration measured in moles per litre.

Query block: Query the reported pIC50 for ParC^E91G N. gonorrhoeae topoisomerase IV (Neisseria gonorrhoeae, UniProt P48374, E91G); item: O=C(O)c1cn(C2CC2)c2cc(N3CCNCC3)c(F)cc2c1=O
Result block: 3.52

###

assay_system: WT N. gonorrhoeae topoisomerase IV (Neisseria gonorrhoeae)
quantity_measured: IC50 (µM)
All answers are understood in µM, so give the number only.

Query block: Query the reported IC50 for WT N. gonorrhoeae topoisomerase IV (Neisseria gonorrhoeae); item: O=C(O)c1cn(C2CC2)c2cc(N3CCNCC3)c(F)cc2c1=O
Result block: 13.7

###

assay_system: GyrA^S91F/D95G N. gonorrhoeae gyrase (Neisseria gonorrhoeae, UniProt P22118+P48371, D95G/S91F)
Construct: His-tag
Sequence (P48371 whole entry, looked up, stated change not applied): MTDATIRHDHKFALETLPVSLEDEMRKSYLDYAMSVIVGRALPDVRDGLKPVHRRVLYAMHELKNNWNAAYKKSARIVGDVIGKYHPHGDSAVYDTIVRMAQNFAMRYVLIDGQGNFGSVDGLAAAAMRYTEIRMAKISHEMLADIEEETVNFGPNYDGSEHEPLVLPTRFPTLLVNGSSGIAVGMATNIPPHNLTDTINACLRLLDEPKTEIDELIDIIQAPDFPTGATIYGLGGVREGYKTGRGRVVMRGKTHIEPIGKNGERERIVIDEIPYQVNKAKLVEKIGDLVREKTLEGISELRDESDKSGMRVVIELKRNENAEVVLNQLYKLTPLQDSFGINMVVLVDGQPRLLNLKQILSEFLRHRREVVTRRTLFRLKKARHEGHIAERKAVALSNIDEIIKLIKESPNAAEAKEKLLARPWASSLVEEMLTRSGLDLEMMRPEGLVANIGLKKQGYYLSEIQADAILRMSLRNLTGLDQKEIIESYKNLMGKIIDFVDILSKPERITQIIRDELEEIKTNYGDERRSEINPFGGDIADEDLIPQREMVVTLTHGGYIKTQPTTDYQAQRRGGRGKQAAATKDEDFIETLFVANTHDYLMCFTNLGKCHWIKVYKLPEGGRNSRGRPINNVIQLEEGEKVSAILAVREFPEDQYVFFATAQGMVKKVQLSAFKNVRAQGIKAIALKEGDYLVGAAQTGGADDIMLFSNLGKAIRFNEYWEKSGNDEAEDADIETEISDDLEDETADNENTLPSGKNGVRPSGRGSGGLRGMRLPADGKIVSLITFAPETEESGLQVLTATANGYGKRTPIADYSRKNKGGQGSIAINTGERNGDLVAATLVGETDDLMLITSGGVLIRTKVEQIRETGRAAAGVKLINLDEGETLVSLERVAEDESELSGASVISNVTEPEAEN
Sequence (P22118 whole entry, stated change not applied): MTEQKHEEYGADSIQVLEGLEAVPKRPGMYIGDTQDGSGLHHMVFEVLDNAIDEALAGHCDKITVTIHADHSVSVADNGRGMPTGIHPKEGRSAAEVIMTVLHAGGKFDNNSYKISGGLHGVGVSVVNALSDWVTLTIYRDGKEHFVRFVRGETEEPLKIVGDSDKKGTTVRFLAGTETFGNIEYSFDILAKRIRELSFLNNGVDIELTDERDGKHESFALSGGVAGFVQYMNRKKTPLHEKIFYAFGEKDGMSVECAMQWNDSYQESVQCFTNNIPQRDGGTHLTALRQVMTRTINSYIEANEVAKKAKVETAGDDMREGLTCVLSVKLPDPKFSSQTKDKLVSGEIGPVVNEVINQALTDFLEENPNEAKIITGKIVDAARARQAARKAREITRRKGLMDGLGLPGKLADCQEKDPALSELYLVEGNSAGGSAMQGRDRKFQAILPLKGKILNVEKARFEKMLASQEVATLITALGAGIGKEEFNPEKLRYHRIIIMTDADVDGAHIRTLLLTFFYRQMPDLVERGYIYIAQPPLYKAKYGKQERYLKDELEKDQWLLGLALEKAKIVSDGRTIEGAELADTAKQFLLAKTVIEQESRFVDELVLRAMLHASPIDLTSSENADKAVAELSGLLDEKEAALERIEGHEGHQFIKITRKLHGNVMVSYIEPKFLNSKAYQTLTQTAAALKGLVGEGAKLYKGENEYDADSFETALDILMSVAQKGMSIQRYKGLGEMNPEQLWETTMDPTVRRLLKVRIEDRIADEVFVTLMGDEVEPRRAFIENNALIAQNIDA
method_notes: Gyrase-catalyzed DNA supercoiling, GyrA S91F/D95G gyrase
measurement_conditions: ± standard error of the mean, read-out: IC50, inhibition of DNA supercoiling
quantity_measured: pIC50
To interpret pIC50, take it as minus log10 of a concentration measured in moles per litre.

Query block: Please look up its pIC50: Cc1c(N2CC[C@@H](CN)C2)c(F)cc2c(=O)n(N)c(=O)n(C3CC3)c12
Result block: 4.71

The origin of these recorded values is paper PMC11015056.
